Assay: amyloid nucleation score (Sup35N fusion, yeast selection) (log enrichment); library NNK3; higher = more nucleation; inactive = no reads after selection;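 also: zero at mode of non-aggregating sequences after 7 days selection at 30°C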
Measured quantity: amyloid nucleation score

Some substances with recorded amyloid nucleation score:
TNPMYK; inactive
EVIRCRSSEEIPGRTNSMWD; inactive
NSFDSMGSMFANRYRLNFPR; inactive
LSFNTVDSPGRIYFRIWYGV; 1.07
DVVGLVAGIVVKLILCSHYG; inactive

Kindly review the next substance as well.
// query amyloid nucleation score value for entry `LSDGGAFLLIRHVFVWGFVT`
inactive

---

Assay: amyloid nucleation score (Sup35N fusion, yeast selection) (log enrichment); library NNK2; higher = more nucleation; inactive = no reads after selection
Kind request: treat 5 as inclusive, so amyloid nucleation score at 5 or higher is true (1), anything lower is false (0).

LADSAYTPY; false (0)
FRMLNRFLWFKVKMGYMHYG; false (0)
YIVYCLFDLLTPNKMWLSPQ; false (0)

API: above_or_equal(metric=amyloid nucleation score, cutoff=5) for item `SKIVYFSYYTQM`
true (1)

Source listed as the supplement of paper PMC12042874.
